Target: ROR gamma ligand binding domain (Homo sapiens (Human), UniProt P51449)
Sequence (P51449 269-508): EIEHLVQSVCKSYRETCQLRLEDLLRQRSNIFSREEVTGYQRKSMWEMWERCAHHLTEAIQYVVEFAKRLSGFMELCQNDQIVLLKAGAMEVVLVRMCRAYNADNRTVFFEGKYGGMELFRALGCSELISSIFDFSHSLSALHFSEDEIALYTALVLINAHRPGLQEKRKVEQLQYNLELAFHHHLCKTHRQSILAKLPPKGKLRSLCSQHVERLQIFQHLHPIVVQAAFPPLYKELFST
Experiment: ROR gamma luciferase reporter assay (GAL4-ROR gamma LBD, HEK293 cells)
Format: cell-based
Conditions: 48 hours treatment, read-out: RORγ luciferase Reporter assay: IC50 (nM) (in range)
Exercise: state measured IC50 for each of the compounds provided.

Please look at this compound and report its IC50: CCS(=O)(=O)c1ccc(CC(=O)Nc2ccc3c(n2)CCC(C)(c2cc(C)nc(C)n2)C3=O)cc1 (stereo not drawn) [Compound 7]
100 to 500 nM

Please look at this compound and report its IC50: CCc1ccc(C2(C)CCc3nc(NC(=O)Cc4ccc(S(=O)(=O)CC)cc4)ccc3C2=O)nn1 (stereo not drawn)
> 500 nM

Please look at this compound and report its IC50: CCS(=O)(=O)c1ccc(CC(=O)Nc2cc(C)c3c(n2)CCC(C)(c2cc(C)nc(C)n2)C3=O)cc1 (single isomer, unassigned) [compound 107]
100 to 500 nM

Please look at this compound and report its IC50: CCS(=O)(=O)c1ccc(CC(=O)Nc2cc(C)c3c(n2)CCC(C)(c2cc(C4CC4)c(OC)nn2)C3=O)cc1 (stereo not drawn)
100 to 500 nM

Please look at this compound and report its IC50: CCS(=O)(=O)c1ccc(CC(=O)Nc2ccc3c(n2)C(C)CC(C)(c2nccn4ccnc24)C3=O)cc1 (stereo not drawn)
> 500 nM

Please look at this compound and report its IC50: CCS(=O)(=O)c1ccc(CC(=O)Nc2cc(C)c3c(n2)CCC(C)(c2cc(C)nc(C)n2)C3=O)cc1 (stereo not drawn) [Compound 28]
100 to 500 nM

Please look at this compound and report its IC50: CCS(=O)(=O)c1ccc(CC(=O)Nc2cc(C)c3c(n2)CCC(C)(c2cc(OC)cnn2)C3=O)cc1 (stereo not drawn)
> 500 nM

Please look at this compound and report its IC50: CCS(=O)(=O)c1ccc(CC(=O)Nc2ccc3c(n2)CCC(C)(c2nccn4ccnc24)C3=O)cc1 (stereo not drawn)
100 to 500 nM

Please look at this compound and report its IC50: CCS(=O)(=O)c1ccc(CC(=O)Nc2ccc3c(n2)CCC(C)(c2nccn4c(C(F)(F)F)cnc24)C3=O)cc1 (stereo not drawn)
< 100 nM

Please look at this compound and report its IC50: CCS(=O)(=O)c1ccc(CC(=O)Nc2ccc3c(n2)CCC(C)(c2ccc(OC)nn2)C3=O)cc1 (stereo not drawn)
100 to 500 nM

Please look at this compound and report its IC50: CCS(=O)(=O)c1ccc(CC(=O)Nc2ccc3c(n2)CCC(C)(c2ccc(OC(C)C)nn2)C3=O)cc1 (stereo not drawn)
> 500 nM

Please look at this compound and report its IC50: CCS(=O)(=O)c1ccc(CC(=O)Nc2ccc3c(n2)CCC(C)(c2ncc(OC)cn2)C3=O)cc1 (single isomer, unassigned) [compound 112]
100 to 500 nM

Please look at this compound and report its IC50: COc1ccc(C2(C)CCc3nc(NC(=O)Cc4ccc(S(C)(=O)=O)cc4)cc(C)c3C2=O)nn1 (stereo not drawn)
100 to 500 nM

Please look at this compound and report its IC50: CCS(=O)(=O)c1ccc(CC(=O)Nc2ccc3c(n2)CCC(C)(c2cc(C)nc(C)n2)C3=O)nc1 (single isomer, unassigned) [compound 123]
> 500 nM

Please look at this compound and report its IC50: Cc1cc(NC(=O)Cc2ccc(S(C)(=O)=O)cc2)nc2c1C(=O)C(C)(c1ncccc1O)CC2 (stereo not drawn)
> 500 nM

Please look at this compound and report its IC50: CCS(=O)(=O)c1ccc(CC(=O)Nc2cc(C)c3c(n2)CCC(C)(c2ccc(C(F)(F)F)nn2)C3=O)cc1 (stereo not drawn)
> 500 nM

Please look at this compound and report its IC50: CCS(=O)(=O)c1ccc(CC(=O)Nc2ccc3c(n2)CCC(C)(c2ncc(Cl)n4ccnc24)C3=O)cc1 (stereo not drawn)
100 to 500 nM

Please look at this compound and report its IC50: CCS(=O)(=O)c1ccc(CC(=O)Nc2ccc3c(n2)CCC(C)(c2nccn4cc(C)nc24)C3=O)cc1 (single isomer, unassigned) [Compound-105]
< 100 nM

Please look at this compound and report its IC50: CCS(=O)(=O)c1ccc(CC(=O)Nc2ccc3c(n2)CC(C)C(C)(c2cc(C)nc(C)n2)C3=O)cc1 (stereo not drawn)
< 100 nM

Please look at this compound and report its IC50: CCS(=O)(=O)c1ccc(CC(=O)Nc2ccc3c(n2)CCC(C)(c2nc(C)cn4cc(C)nc24)C3=O)cc1 (stereo not drawn)
< 100 nM

Please look at this compound and report its IC50: CCS(=O)(=O)c1ccc(CC(=O)Nc2ccc3c(n2)CCC(C)(c2nc(C)cn4ccnc24)C3=O)cc1 (stereo not drawn) [Compound 16]
< 100 nM

Please look at this compound and report its IC50: CCS(=O)(=O)c1ccc(CC(=O)Nc2cc(C)c3c(n2)CCC(C)(c2ccc(OC)nc2)C3=O)cc1 (stereo not drawn)
< 100 nM

Please look at this compound and report its IC50: CCS(=O)(=O)c1ccc(CC(=O)Nc2ccc3c(n2)CCC(C)(c2cc(C)nc(C(F)(F)F)n2)C3=O)cc1 (stereo not drawn)
100 to 500 nM

Please look at this compound and report its IC50: CCS(=O)(=O)c1ccc(CC(=O)Nc2ccc3c(n2)CCC(C)(c2nccn4c(F)c(C)nc24)C3=O)cc1 (stereo not drawn)
< 100 nM

Please look at this compound and report its IC50: CCS(=O)(=O)c1ccc(CNC(=O)c2cc3c(cn2)C(=O)C(C)(c2cc(C)nc(C)n2)CC3)cc1 (stereo not drawn)
100 to 500 nM

Please look at this compound and report its IC50: CCS(=O)(=O)c1ccc(CC(=O)Nc2cc(C)c3c(n2)CCC(C)(c2ccc4nc(C)cn4n2)C3=O)cc1 (stereo not drawn)
100 to 500 nM

Please look at this compound and report its IC50: CCS(=O)(=O)c1ccc(CC(=O)Nc2ccc3c(n2)CCC(C)(c2cc(C)nc(C)n2)C3=O)cc1 (single isomer, unassigned) [compound 103]
> 500 nM

* * *

Molecular target: RORγ LBD (Homo sapiens (Human), UniProt P51449)
Sequence (P51449 268-518): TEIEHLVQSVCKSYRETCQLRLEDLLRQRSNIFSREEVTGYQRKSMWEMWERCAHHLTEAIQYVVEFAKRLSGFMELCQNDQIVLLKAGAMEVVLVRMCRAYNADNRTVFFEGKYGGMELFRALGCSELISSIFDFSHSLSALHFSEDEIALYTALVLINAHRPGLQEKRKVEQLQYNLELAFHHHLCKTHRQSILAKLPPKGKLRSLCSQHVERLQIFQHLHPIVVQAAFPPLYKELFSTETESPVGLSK
Assay: ROR gamma radio-ligand binding assay (3H 25-Hydroxycholesterol competitive displacement, dextran charcoal method)
Conditions: 1 μM compound
We use 80% as the dividing line for inhibition at 1 µM: on or above the line is Criterion met, below is Criterion not met.

Is inhibition at 1 µM at least 80%? Consider CCS(=O)(=O)c1ccc(CC(=O)Nc2cc(C)c3c(n2)CCC(C)(c2nccn4ccnc24)C3=O)cc1 (centres unmarked)
Criterion not met

Is inhibition at 1 µM at least 80%? Consider CCS(=O)(=O)c1ccc(CC(=O)Nc2cc(C)c3c(n2)CCC(C)(c2ccc(C)nn2)C3=O)cc1 (centres unmarked)
Criterion not met

Is inhibition at 1 µM at least 80%? Consider CCS(=O)(=O)c1ccc(CC(=O)Nc2ccc3c(n2)CCC(C)(c2ccc(OC)nc2)C3=O)cc1 (centres unmarked)
Criterion met

Is inhibition at 1 µM at least 80%? Consider CCS(=O)(=O)c1ccc(CC(=O)Nc2ccc3c(n2)CCC(C)(c2nccn4c(C)cnc24)C3=O)cc1 (centres unmarked)
Criterion met

Is inhibition at 1 µM at least 80%? Consider CCS(=O)(=O)c1ccc(CC(=O)Nc2cc(C)c3c(n2)CCC(C)(c2cc(C)nc(OC)n2)C3=O)cc1 (centres unmarked)
Criterion met

Is inhibition at 1 µM at least 80%? Consider CCS(=O)(=O)c1ccc(CC(=O)Nc2cc(C)c3c(n2)CCC(C)(c2c(C)ccnc2O)C3=O)cc1 (centres unmarked)
Criterion not met

Is inhibition at 1 µM at least 80%? Consider CCS(=O)(=O)c1ccc(CC(=O)Nc2ccc3c(n2)CCC(C)(c2ccnc(C(C)C)n2)C3=O)cc1 (centres unmarked)
Criterion met

Is inhibition at 1 µM at least 80%? Consider CCS(=O)(=O)c1ccc(CC(=O)Nc2cc(C)c3c(n2)CCC(C)(c2cc(OC)ccn2)C3=O)cc1 (centres unmarked)
Criterion not met

Is inhibition at 1 µM at least 80%? Consider CCS(=O)(=O)c1ccc(CC(=O)Nc2ccc3c(n2)CCC(C)(c2nccn4cccc24)C3=O)cc1 (centres unmarked)
Criterion met

Is inhibition at 1 µM at least 80%? Consider CCS(=O)(=O)c1ccc(CC(=O)Nc2ccc3c(n2)CC(C)(C)C(c2ccc(O)cn2)C3=O)cc1 (centres unmarked)
Criterion not met

Is inhibition at 1 µM at least 80%? Consider CCS(=O)(=O)c1ccc(CC(=O)Nc2cc(C)c3c(n2)CCC(C)(c2ccc(OC)cn2)C3=O)cc1 (centres unmarked)
Criterion not met

Is inhibition at 1 µM at least 80%? Consider CCS(=O)(=O)c1ccc(CC(=O)Nc2ccc3c(n2)CCC(C)(c2nccn4cc(C)nc24)C3=O)cc1 (centres unmarked)
Criterion met

Is inhibition at 1 µM at least 80%? Consider CCS(=O)(=O)c1ccc(CC(=O)Nc2cc(C)c3c(n2)CCC(C)(c2nc(C)cc(C)n2)C3=O)cc1 (centres unmarked)
Criterion met

Is inhibition at 1 µM at least 80%? Consider CCS(=O)(=O)c1ccc(CC(=O)Nc2cc(C)c3c(n2)CCC(C)(c2ncccc2O)C3=O)cc1 (centres unmarked)
Criterion not met

Is inhibition at 1 µM at least 80%? Consider CCS(=O)(=O)c1ccc(CC(=O)Nc2cc(C)c3c(n2)CCC(C)(c2cccc(OC)n2)C3=O)cc1 (centres unmarked)
Criterion met

Is inhibition at 1 µM at least 80%? Consider CCS(=O)(=O)c1ccc(CC(=O)Nc2ccc3c(n2)CC(C)C(c2ncccc2O)C3=O)cc1 (centres unmarked)
Criterion not met

Is inhibition at 1 µM at least 80%? Consider CCS(=O)(=O)c1ccc(CC(=O)Nc2ccc3c(n2)CCC(C)(c2nc(C)cn4ccnc24)C3=O)cc1 (centres unmarked)
Criterion met

Is inhibition at 1 µM at least 80%? Consider CCS(=O)(=O)c1ccc(CC(=O)Nc2cc(C)c3c(n2)CCC(C)(c2cc(C)nc(C)n2)C3=O)cc1 (single isomer, unassigned) [compound 107]
Criterion met

Is inhibition at 1 µM at least 80%? Consider CCS(=O)(=O)c1ccc(CC(=O)Nc2cc(C)c3c(n2)CCC(C)(c2ccc(O)cn2)C3=O)cc1 (centres unmarked)
Criterion met
